biological target: T1, human CD3 (human, UniProt P07766 23-207); test: cell binding, human CD3, 50 nM SFA present
T1 construct: whole, on cells; also called CD3 on human T-cells
T1 sequence (P07766 23-207): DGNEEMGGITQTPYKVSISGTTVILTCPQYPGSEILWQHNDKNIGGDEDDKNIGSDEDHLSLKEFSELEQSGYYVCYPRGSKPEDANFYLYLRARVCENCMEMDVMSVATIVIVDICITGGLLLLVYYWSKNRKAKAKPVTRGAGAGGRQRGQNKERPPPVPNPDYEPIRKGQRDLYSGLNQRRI
For each record, write down the corresponding EC50.
Field format: number, assumed nM, no unit text.

Requested read-out: EC50. Entry: Fab1-HK129-Folate (Fab, V domains shown, pAF at HK129 (Kabat) conjugated to folate (oxime), From E. coli; also called Folate lead; parent control) VH: EVQLVESGGGLVQPGGSLRLSCAASGFTFNTYAMNWVRQAPGKGLEWVARIRSKYNNYATYYADSVKDRFTISRDDSKNILYLQMNSLKTEDTAVYYCVRHGNFGNSYVSWFAYWGQGTLVTVSS VL: QAVVTQEPSLTVSPGGTVTLTCRSSTGAVTTSNYANWVQQKPGQAPRGLIGGTNKRAPGTPARFSGSLLGGKAALTLSGAQPEDEAEYYCALWYSNLWVFGGGTKLTVLG
2

Requested read-out: EC50. Entry: Fab1-HK129-pAF (Fab, V domains shown, para-acetyl-phenylalanine (pAF) at HK129 (Kabat), From E. coli; carries no folate and no PEG; also called Fab1-HK129-pAF1; anti-CD3 Fab1-HK129-pAF control) VH: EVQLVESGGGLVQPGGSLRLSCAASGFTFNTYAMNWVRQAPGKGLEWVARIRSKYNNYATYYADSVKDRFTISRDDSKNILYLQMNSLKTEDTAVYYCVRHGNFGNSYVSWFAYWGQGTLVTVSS VL: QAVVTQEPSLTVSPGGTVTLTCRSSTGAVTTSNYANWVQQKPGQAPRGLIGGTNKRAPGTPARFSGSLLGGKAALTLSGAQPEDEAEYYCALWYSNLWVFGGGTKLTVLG
1.92

Requested read-out: EC50. Entry: Fab1-HK129-LL157-BiFolate (Fab, V domains shown, pAF at LL157 (Kabat) conjugated to folate (oxime); pAF at HK129 (Kabat) conjugated to folate (oxime), From E. coli; carries two folates) VH: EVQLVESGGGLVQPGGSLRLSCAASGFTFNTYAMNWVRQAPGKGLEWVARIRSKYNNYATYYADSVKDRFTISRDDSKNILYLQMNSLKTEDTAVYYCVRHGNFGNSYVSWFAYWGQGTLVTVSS VL: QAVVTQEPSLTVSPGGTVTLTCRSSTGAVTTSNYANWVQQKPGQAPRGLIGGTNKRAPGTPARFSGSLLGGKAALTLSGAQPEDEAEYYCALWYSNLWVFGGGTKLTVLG
2.37
